Experiment: qHTS for Inhibitors of binding or entry into cells for Lassa Virus; note: nearly all actives have a fitted effect of over 50% in size
Conditions: Lassa virus pseudotype entry inhibition, cell reporter; series mostly up to 37.9 µM
About 3,700 (1.2%) of roughly 300,000 compounds were called active. Another 20% or so got no clear call; they are omitted. Calls come from the whole dose curve; tested in HEK293 cells. For the sample, actives were picked, then their nearest neighbours and some compounds at random.
Allowed answers: Y for active, N for inactive

[ask] Outcome logged for Oc1ccc(Cl)cc1/C=N/c1nc2ccccc2[nH]1 in this assay:
[reply] N

[ask] Outcome logged for CCOC(=O)C1CCN(C(=O)C2CCCN(S(=O)(=O)c3ccc(OC)c(Cl)c3)C2)CC1 (stereo not given) in this assay:
[reply] N

[ask] Outcome logged for COc1ccc(-c2csc(NC(=O)c3ccc(N4C(=O)CCC4=O)cc3)n2)cc1OC in this assay:
[reply] N

[ask] Outcome logged for CC(C)OC(=O)c1ccc(NCc2cc(O)ccc2O)cc1Cl in this assay:
[reply] Y

[ask] Outcome logged for CC(=O)c1ccc(OCCCC(=O)Nc2ccc(C)c(S(=O)(=O)N3CCOCC3)c2)cc1 in this assay:
[reply] N

[ask] Outcome logged for COc1ccc(-c2cc(C(=O)N(C)Cc3ccccc3)c3ccccc3n2)cc1 in this assay:
[reply] Y

[ask] Outcome logged for O=[N+]([O-])c1ccc(C=NN=Cc2ccc([N+](=O)[O-])cc2)cc1 in this assay:
[reply] N

[ask] Outcome logged for Cc1nc(N2CCC(C)CC2)c2c(C)c(C(=O)Nc3cc(F)ccc3C)sc2n1 in this assay:
[reply] N

[ask] Outcome logged for CCOc1ccc(N(Cc2ccccc2)C(=O)c2nc(S(C)(=O)=O)ncc2Cl)cc1 in this assay:
[reply] Y

[ask] Outcome logged for O=C(/C(=C/c1cccc(Cl)c1)c1nc2ccccc2[nH]1)c1ccccc1 in this assay:
[reply] Y

[ask] Outcome logged for Cc1ccc(S(=O)(=O)NC(=O)Nc2nc(-c3ccc(F)c(F)c3)cs2)cc1 in this assay:
[reply] N

[ask] Outcome logged for COCC(C)n1c(SCC(=O)NC2CCCCC2C)nc2ccccc2c1=O (stereo not given) in this assay:
[reply] N

[ask] Outcome logged for Cc1cccc(C(=O)Nc2nnc(Cc3c[nH]c4ccccc34)s2)c1 in this assay:
[reply] N

[ask] Outcome logged for CNC(=O)COC(=O)c1cc(-c2ccc(OC)cc2)nc2ccccc12 in this assay:
[reply] N

[ask] Outcome logged for CC(=O)c1ccc(S(=O)(=O)N2CCN(c3nc4c(C)c(C)ccc4cc3C#N)CC2)cc1 in this assay:
[reply] Y

[ask] Outcome logged for CC(C)c1nc2sc3c(c2c(=O)n1N)CC(C)(C)OC3 in this assay:
[reply] N

[ask] Outcome logged for CCN(c1ccccc1)S(=O)(=O)c1ccc(NC(=O)C(C)(C)C)cc1 in this assay:
[reply] Y

[ask] Outcome logged for CCC(=O)/C(=C(/O)c1ccccc1)c1nc2ccccc2[nH]1 in this assay:
[reply] N

[ask] Outcome logged for O=C(CC1Sc2ccccc2NC1=O)NNc1ccc(Cl)c(Cl)c1 (stereo not given) in this assay:
[reply] N

[ask] Outcome logged for Cc1ccccc1-c1nc2scc(CCNC(=O)C(=O)Nc3ccc(F)cc3F)n2n1 in this assay:
[reply] N

[ask] Outcome logged for CSCCC(NS(=O)(=O)c1ccc(C)cc1)C(=O)N(C)CC(=O)Nc1ccccc1Br (stereo not given) in this assay:
[reply] N

[ask] Outcome logged for O=C(Nc1ccc2ccccc2c1)Nc1ccc2snnc2c1 in this assay:
[reply] Y

[ask] Outcome logged for CCN(c1ccccc1)S(=O)(=O)c1ccc(C(=O)Nc2nccs2)cc1 in this assay:
[reply] N

[ask] Outcome logged for O=C(NCCc1ccco1)c1ccc(OCc2cn3ccccc3n2)cc1 in this assay:
[reply] N

[ask] Outcome logged for CCN(CC)S(=O)(=O)c1ccc(N(C)Cc2ccc(C(F)(F)F)cc2)nc1 in this assay:
[reply] Y

[ask] Outcome logged for Cc1c(C(=O)Nc2cccc(S(=O)(=O)N3CCOCC3)c2)oc2ccccc12 in this assay:
[reply] N

[ask] Outcome logged for COc1ccc(NC(=O)Nc2ccc3nsnc3c2)cc1 in this assay:
[reply] N

[ask] Outcome logged for CSc1ncc(C(=O)Nc2ccc(C)cc2C)c(C)n1 in this assay:
[reply] N

[ask] Outcome logged for CC1(C(=O)N/N=C/c2cc3c(cc2Br)OCO3)CC1(Br)Br (stereo not given) in this assay:
[reply] N

[ask] Outcome logged for CCn1c(SCC(=O)Nc2ccc(Br)cc2)nc2sc3c(c2c1=O)CCN(C)C3 in this assay:
[reply] N

[ask] Outcome logged for Cc1ccccc1NC(=O)Cn1cc(C(=O)C2CC2)c2ccccc21 in this assay:
[reply] N

[ask] Outcome logged for Cc1ccc(-c2csc(NC(=O)c3cnccn3)n2)cc1C in this assay:
[reply] N

[ask] Outcome logged for CCN(c1ccccc1)S(=O)(=O)c1cccc(C(=O)O)c1 in this assay:
[reply] N

[ask] Outcome logged for COc1ccccc1OCc1nc2ccccc2s1 in this assay:
[reply] Y

[ask] Outcome logged for Fc1ccccc1OCCCCn1cncn1 in this assay:
[reply] N

Values compiled from PubChem BioAssay AID540256.
